Please respond with reported LD50 at 168 h for every item in the list.
Assay: Acute toxicity in ip dosed female Balb/c mouse administered as single dose and measured for 7 days by karber method
Assay type: organism-based
Details: in vivo, time 7 day
Non-standard residues stand in square brackets, D forms with d. Residues, ends and D or L forms follow the SMILES beside them. Aad = N[C@@H](CCCC(=O)O)C(=O)O
// return numeric value only (unit: mg/kg, not printed)

// LD50 at 168 h lookup, molecule = CC(=O)O[C@H]1C(=O)[C@@]2(C)[C@H]([C@H](OC(=O)c3ccccc3)[C@]3(O)C[C@H](OC(=O)[C@H](O)[C@@H](NC(=O)c4ccccc4)c4ccccc4)C(C)=C1C3(C)C)[C@]1(OC(C)=O)CO[C@@H]1C[C@@H]2O [PACLITAXEL] , result: 39.7

According to the records, this molecule CC(C)C[C@H](NC(=O)[C@H](CCCCN)NC(=O)[C@H](CCCCN)NC(=O)[C@H](CC(C)C)NC(=O)[C@H](CC(C)C)NC(=O)[C@H](CCCCN)NC(=O)[C@H](CCCCN)NC(=O)[C@H](CC(C)C)NC(=O)[C@H](CC(C)C)NC(=O)[C@H](CCCCN)NC(=O)[C@H](CCCCN)NC(=O)[C@H](CC(C)C)NC(=O)[C@@H](N)CC(C)C)C(=O)N[C@@H](CCCC(=O)O)C(N)=O (H-LLKKLLKKLLKKL[Aad]-NH2) displays LD50 at 168 h of 84

In plain terms, CC(C)C[C@H](NC(=O)[C@H](CC(C)C)NC(=O)[C@H](CCCCN)NC(=O)[C@H](CCCCN)NC(=O)[C@H](CC(C)C)NC(=O)[C@H](CC(C)C)NC(=O)[C@H](CCCCN)NC(=O)[C@H](CCCCN)NC(=O)[C@H](CC(C)C)NC(=O)[C@H](CC(C)C)NC(=O)[C@H](CCCCN)NC(=O)[C@H](CCCCN)NC(=O)[C@H](CC(C)C)NC(=O)[C@@H](N)CC(C)C)C(N)=O (H-LLKKLLKKLLKKLL-NH2) has a documented LD50 at 168 h of 50.2

Looking up CC(C)C[C@H](NC(=O)[C@H](CCCCN)NC(=O)[C@H](CCCCN)NC(=O)[C@H](CC(C)C)NC(=O)[C@H](CC(C)C)NC(=O)[C@H](CCCCN)NC(=O)[C@H](CCCCN)NC(=O)[C@H](CC(C)C)NC(=O)[C@H](CC(C)C)NC(=O)[C@H](CCCCN)NC(=O)[C@H](CCCCN)NC(=O)[C@H](CC(C)C)NC(=O)[C@@H](N)CC(C)C)C(=O)N[C@@H](CCC(=O)O)C(N)=O (H-LLKKLLKKLLKKLE-NH2) , I see its LD50 at 168 h listed as 79.9
